# credit: ChEMBL document CHEMBL1148975

# maps each entry to its IC50
Tested on: Trypanosoma brucei rhodesiense
Assay: Antitrypanosomal activity against Trypanosoma brucei rhodesiense
Type: functional, organism-based
Form entry: value (µg/mL) — number only.

Fill in IC50 for record COc1cc(O)c(-c2c(C)cc(OC)c3c(O)cccc23)c2c1[C@@H](C)N(C)[C@@H](C)C2
2.2

Fill in IC50 for record COc1cccc2c(-c3c(O)cc(OC)c4c(C)nc(CO)cc34)c(C)cc(O)c12 [6-O-DEMETHYLANCISTROBENOMINE A]
14.7

Fill in IC50 for record COc1cc(OC)c2c(C)nc(CO)cc2c1-c1c(C)cc(O)c2c(OC)cccc12 [ANCISTROBENOMINE A]
1.3

Fill in IC50 for record Nc1nc(N)nc(Nc2ccc([As]3SCC(CO)S3)cc2)n1 (centres undefined)
0.00095
